Experiment: ATG_PXRE_CIS: Attagene CIS-FACTORIAL HepG2 Assay for human Pregnane X Receptor Element (PXRE) (AID 2282957)
Conditions: HepG2 Attagene CIS-FACTORIAL PXRE reporter, mRNA; actives raise or lower the signal
Activity calls are given as the source filed them. Rule for the calls: active = hit-call score of the fitted dose curve at least 0.9, where 1 is the maximum; inactive = score below 0.9.
propertyLabel: AC50

>  <molecule>
CCCCCCCCCCCCCCCC[n+]1ccccc1

>  <recordedResult>
inactive

$$$$
>  <molecule>
CCCCCCOc1cc(C)c(O)c(C)c1C

>  <recordedResult>
3.01 µM (active)

$$$$
>  <molecule>
COc1ccc(-c2coc3cc(O)ccc3c2=O)cc1

>  <recordedResult>
11.3 µM (active)

$$$$
>  <molecule>
O=C(OCC1CCC2OC2C1)C1CCC2OC2C1 (configuration not stated)

>  <recordedResult>
inactive

$$$$

// returns reported AC50 for input "Cc1cc(C)c(C)c(O)c1"
42.3 µM (active)

// returns reported AC50 for input CC(CC=O)CCCC(C)(C)O (configuration not stated)
41.2 µM (active)

// returns reported AC50 for input "O=C(Nc1ccccc1SSc1ccccc1NC(=O)c1ccccc1)c1ccccc1"
4.44 µM (active)
